target: α-Glucosidase (from baker’s yeast) (Saccharomyces cerevisiae); construct: purchased Sigma-Aldrich #63231-63-0; assay: biochemical; conditions: Substrate PNPG 0.125 mM; read-out: IC50
Reported IC50 by item:
Response body: numeric value in µM, unit text excluded.

> print(dat)
                                 smiles.str                              study.target  observation.type  reported
1  CC1(C)C=Cc2c(ccc3c2OC[C@@]2(O)c4ccc(O)cc4O[C@@H]32)O1  α-Glucosidase (from baker’s yeast) (Saccharomyces cerevisiae)              IC50      16.6

Now let's try a different one.
Lab note: O=c1cc(-c2ccc(O)c(O)c2)oc2cc(O)cc(O)c12 gave IC50 of 18.6

====

target: α-Glucosidase (from baker’s yeast) (Saccharomyces cerevisiae, UniProt P53341); construct: purchased Sigma-Aldrich #63231-63-0; experiment: biochemical; conditions: pNPG 1 mM, pH 7.0, 37 °C; read-out: half-maximal inhibitory concentrations (IC50)
Sequence (P53341 whole entry): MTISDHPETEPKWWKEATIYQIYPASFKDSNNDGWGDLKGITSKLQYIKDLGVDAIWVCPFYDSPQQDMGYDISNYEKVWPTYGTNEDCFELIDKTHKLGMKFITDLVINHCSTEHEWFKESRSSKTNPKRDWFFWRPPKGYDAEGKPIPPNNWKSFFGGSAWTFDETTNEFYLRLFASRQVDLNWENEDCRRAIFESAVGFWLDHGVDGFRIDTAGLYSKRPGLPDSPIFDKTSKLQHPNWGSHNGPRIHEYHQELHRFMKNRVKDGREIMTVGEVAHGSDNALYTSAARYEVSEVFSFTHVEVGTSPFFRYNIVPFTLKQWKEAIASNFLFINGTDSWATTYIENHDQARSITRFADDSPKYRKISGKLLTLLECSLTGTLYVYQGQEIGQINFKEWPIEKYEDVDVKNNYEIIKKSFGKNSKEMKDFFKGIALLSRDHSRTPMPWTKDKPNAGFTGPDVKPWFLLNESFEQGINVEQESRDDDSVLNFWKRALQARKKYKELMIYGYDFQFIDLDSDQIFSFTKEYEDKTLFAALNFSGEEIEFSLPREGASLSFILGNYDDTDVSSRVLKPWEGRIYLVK
Reported IC50 by item:
Response body: numeric value in µM, unit text excluded.

Lab note: CC1(C)C=Cc2c(ccc3c2OC[C@@]2(O)c4ccc(O)cc4O[C@@H]32)O1 gave IC50 of 13.2

Lab note: O=c1cc(-c2ccc(O)c(O)c2)oc2cc(O)cc(O)c12 gave IC50 of 11.9

====

molecular target: α-Glucosidase (from baker’s yeast) (Saccharomyces cerevisiae); construct: purchased Sigma-Aldrich #63231-63-0; assay: biochemical; details: Substrate PNPG 0.5 mM; read-out: IC50
Observation Type: IC50 (µM)
Response body: numeric value in µM, unit text excluded.

> print(dat)
                                   compound  measurement.unit  reported
1  CC1(C)C=Cc2c(ccc3c2OC[C@@]2(O)c4ccc(O)cc4O[C@@H]32)O1 [Glyceollin, glyceollin]                µM      19.1

Now let's try a different one.
Lab note: O=c1cc(-c2ccc(O)c(O)c2)oc2cc(O)cc(O)c12 [Luteolin, luteolin] gave IC50 of 15.4

====

Reported pKi by item:
target: α-Glucosidase (from baker’s yeast) (Saccharomyces cerevisiae); construct: purchased Sigma-Aldrich #63231-63-0; assay: Enzyme kinetics for α-glucosidase (Michaelis–Menten, Lineweaver–Burk, Dixon plot); type: biochemical
As a rule, pKi stands for the negative log10 of the concentration, concentration in M.

> print(dat)
                                 smiles.str  observation.type  reported
1  CC1(C)C=Cc2c(ccc3c2OC[C@@]2(O)c4ccc(O)cc4O[C@@H]32)O1               pKi      4.72

Measured on α-Glucosidase (from baker’s yeast) (Saccharomyces cerevisiae), O=c1cc(-c2ccc(O)c(O)c2)oc2cc(O)cc(O)c12 has a documented pKi of 4.77

====

Target: α-Glucosidase (from baker’s yeast) (Saccharomyces cerevisiae, UniProt P53341)
Construct: purchased Sigma-Aldrich #63231-63-0
Assay: biochemical
Settings: IC50, Substrate PNPG 0.25 mM
Procedure: Synergistic effects on α-glucosidase inhibition were measured using the same methods as above. […] We calculated the IC50 values of each polyphenol and the combinations, and we used the statistical differences of these values to assess synergistic effects.
Observation Type: IC50 (µM)
Response body: numeric value in µM, unit text excluded.

Measured on α-Glucosidase (from baker’s yeast) (Saccharomyces cerevisiae, UniProt P53341), O=c1c(-c2ccc(O)cc2)coc2cc(O)ccc12 has a documented IC50 of 27.6
